The reported numbers originate from patent US20210214461A1.

measuredOn: pre-existing anti-scFv903 antibodies in human serum H56 (human)
testMethodNotes: competition ADA bridging ELISA
attributeMeasured: signal change in competition ELISA (% reduction in OD)
Answer format: number, then unit.

The examples below pair each entry with its known result.
scFv105 (scFv) scFv: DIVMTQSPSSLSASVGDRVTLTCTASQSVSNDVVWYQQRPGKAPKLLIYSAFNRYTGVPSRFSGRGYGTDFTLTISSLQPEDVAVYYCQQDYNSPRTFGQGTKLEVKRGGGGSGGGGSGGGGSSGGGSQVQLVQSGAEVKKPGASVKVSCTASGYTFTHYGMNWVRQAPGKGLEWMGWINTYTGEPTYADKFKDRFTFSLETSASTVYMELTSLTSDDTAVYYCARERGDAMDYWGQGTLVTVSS :: -5%
scFv 961 (scFv) scFv: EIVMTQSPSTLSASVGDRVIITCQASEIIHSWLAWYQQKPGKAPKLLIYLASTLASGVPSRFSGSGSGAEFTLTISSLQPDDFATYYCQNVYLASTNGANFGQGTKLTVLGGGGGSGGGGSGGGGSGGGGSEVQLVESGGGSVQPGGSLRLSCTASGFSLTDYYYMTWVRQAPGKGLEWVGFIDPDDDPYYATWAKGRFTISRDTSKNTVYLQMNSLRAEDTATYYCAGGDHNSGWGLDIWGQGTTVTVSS :: -24%
scFv 791 (scFv) scFv: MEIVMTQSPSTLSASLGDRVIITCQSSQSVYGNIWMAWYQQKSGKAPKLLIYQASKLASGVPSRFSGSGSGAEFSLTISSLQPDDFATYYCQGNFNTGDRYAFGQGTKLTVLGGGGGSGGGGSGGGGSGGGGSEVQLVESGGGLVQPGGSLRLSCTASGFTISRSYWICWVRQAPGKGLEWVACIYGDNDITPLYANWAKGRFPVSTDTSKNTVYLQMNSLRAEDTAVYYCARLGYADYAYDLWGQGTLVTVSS :: -15%

Now consider a different binder.
Exercise: Consider the binder shown here: scFv 903 (scFv) scFv: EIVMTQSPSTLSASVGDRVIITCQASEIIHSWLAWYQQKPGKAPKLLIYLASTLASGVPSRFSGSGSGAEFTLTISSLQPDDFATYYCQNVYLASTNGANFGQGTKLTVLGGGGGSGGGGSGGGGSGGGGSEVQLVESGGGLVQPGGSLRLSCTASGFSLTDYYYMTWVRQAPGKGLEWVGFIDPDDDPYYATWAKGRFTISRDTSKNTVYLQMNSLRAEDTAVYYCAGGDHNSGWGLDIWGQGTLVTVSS What is its recorded signal change in competition ELISA (% reduction in OD)?
Key: -24%
